Tgt: Guanine nucleotide-binding protein G(o) subunit alpha (Homo sapiens) (UniProt P09471)
Sequence (P09471 whole entry, looked up): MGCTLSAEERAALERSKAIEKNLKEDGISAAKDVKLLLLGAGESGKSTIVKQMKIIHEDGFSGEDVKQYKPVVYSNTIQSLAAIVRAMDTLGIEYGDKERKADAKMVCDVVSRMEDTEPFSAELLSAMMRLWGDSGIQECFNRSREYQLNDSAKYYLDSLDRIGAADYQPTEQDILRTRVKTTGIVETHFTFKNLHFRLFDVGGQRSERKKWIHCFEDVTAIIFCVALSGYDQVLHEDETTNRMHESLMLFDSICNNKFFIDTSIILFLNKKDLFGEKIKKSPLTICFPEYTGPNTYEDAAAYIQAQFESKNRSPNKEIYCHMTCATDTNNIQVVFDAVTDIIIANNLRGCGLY
Assay notes: modulators of RGS4 binding to Galphao, primary screen, biochemical, multiplexed bead flow cytometry (AID 1415);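 further: fluorescent Galphao activated with aluminum fluoride binding bead-coupled RGS4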
Experimental setup: at 10 µM, actives lie on both sides
About 710 (0.32%) of roughly 220,000 compounds were called active. No stated cut-off is given here; in the data, active means binding response below about 49% or above about 150%; inactive means in between. The full list was thinned out, with actives kept by preference.
Answer with one of the outcomes given here: class 1 for active, class 0 for inactive

The examples below pair each entry with its known result.
COc1ccc(CCNC(=O)C2CC3Cn4c(nc5cc(C)c(C)cc54)C3N2C)cc1 (stereo not given) = class 0
CS(=O)(=O)c1sc(C(=O)NC(=S)Nc2ccc(OC(F)(F)F)cc2)c2c1C=CCC2 = class 0

Enquiry: What outcome does the record of this test show for FC(F)Oc1ccccc1C1CC(c2ccc(Br)s2)Nc2ncnn21 (stereo not given) ?
Return: class 1

Enquiry: Okay, and COc1ccccc1NC(=O)CCCc1c[nH]c2ccccc12 ?
Return: class 1

Enquiry: Next compound up: O=C(CCCCCn1c(=O)[nH]c2ccccc2c1=O)NCCc1c[nH]c2ccccc12
Return: class 0

Enquiry: Likewise for COCCCNC(=S)N(Cc1ccccc1)Cc1ccc(F)cc1 ?
Return: class 0

Enquiry: Do the same for CCCC(=O)n1nc(-c2ccccc2)nc1N please
Return: class 1

Enquiry: Also Cc1ccc(N2C(=O)C3C(c4ccccc4)(C2=O)C3(c2ccccc2)c2ccccc2)cc1 (stereo not given) , if possible.
Return: class 1

Enquiry: Another compound to check: C=CCn1c(=NC(=O)c2cccs2)sc2cc(NC(C)=O)ccc21
Return: class 1

Enquiry: Repeat for the following compound: Cn1ccc(NC(=O)Nc2ccc(Cl)cc2)n1
Return: class 0

This collection of values is drawn from PubChem BioAssay AID1415.
